test system: SN12C renal; experiment: NCI tumour cell line growth inhibition, 48 h
Where a SMILES comes first, the peptide text is derived from it. The star is where a group is joined. Cbz = O=C(OCc1ccccc1)*; NHNH2 = NN*
readoutName: TGI

| molecule | readoutName | reportedResult |
| --- | --- | --- |
| Cc1c(C(N)=O)sc2c1c(=O)n(Cc1ccccc1)c1nnc(-c3ccc(Br)cc3)n21 | TGI | 14.1 µM |
| CC1=C(C)C2(O)C(=C(C)C1=O)/C(=C(/O)c1ccccc1)c1nc3ccccc3n12 (stereo unspecified) | TGI | 34.6 µM |
| Cn1c(=S)c2[nH]c(SCCN3C(=O)c4ccccc4C3=O)nc2n(C)c1=O | TGI | > 100 µM |
| CC12CCC3c4cc(Br)c(O)c(Br)c4CCC3C1CCC2O (stereo unspecified) | TGI | 42 µM |
| C[C@@H]1COCCN1c1cc(C2([S@@](C)(=N)=O)CC2)nc(-c2ccnc3[nH]ccc23)n1 | TGI | > 100 µM |
| COc1ccc(/C=C\c2cc(OC)c(OC)c(OC)c2)cc1OCC(=O)Nc1ccc2nc(C)sc2c1 | TGI | > 100 µM |
| Cn1c(=O)c2[nH]cnc2n(CC(N)=O)c1=O | TGI | > 100 µM |
| COc1ccccc1NCc1cccc2c(=O)c3ccc(Cl)cc3oc12 | TGI | > 100 µM |
| C=CCCCCOC1C=CC(O)C(CO)O1 (stereo unspecified) | TGI | > 100 µM |
| O=c1oc2ccc(-c3ccc(F)cc3F)cc2c(=O)n1-c1ccc(Cl)c(C(F)(F)F)c1 | TGI | 11.7 µM |
| COC(=O)/C=C(\S/C=C(/c1ccccc1)N1CCn2c(C(=O)c3ccccc3)c(C(=O)OC)c(C(=O)OC)c21)C(=O)OC | TGI | > 10 µM |
| CC(C)(C)OC(=O)c1cccnc1/C=N/O | TGI | > 100 µM |
| CC1CN=C(c2cccc(-c3nc(-c4cccc(C5=NCC(C)N5)c4)nc(N(C)C)n3)c2)N1 (stereo unspecified) | TGI | 3.46 µM |
| O=C(Nc1ccccc1O)c1ccc(NS(=O)(=O)c2cccc3cccnc23)cc1 | TGI | > 19.7 µM |
| O=C(NCc1ccco1)c1cccc(NC2=C(Cl)C(=O)N(Cc3ccccc3)C2=O)c1 | TGI | > 100 µM |
| S=C=NCCc1ccccc1 | TGI | 0.987 µM |
| Cc1nc2sccn2c1C(=O)NC(=O)Nc1ccc(Cl)cc1 | TGI | > 100 µM |
| Cc1cccc(NC(=O)/C=C/c2ccc([N+](=O)[O-])cc2)c1 | TGI | > 58.2 µM |
| Nc1c2c(nc3ccccc13)-c1ccccc1NCCC2 | TGI | > 100 µM |
| COc1ccc(C(=O)N/N=C/c2c(C)n(C)n(-c3ccccc3)c2=O)cc1 | TGI | > 100 µM |
| N#CN1CC[C@H](C(=O)Nc2cc3cc(C(N)=O)ccc3cn2)C1 | TGI | 46.7 µM |
| CC(=O)NNc1nc(C)c(C(=O)NNC(=O)C(=O)Nc2ccc([N+](=O)[O-])cc2C#N)s1 | TGI | > 100 µM |
| CN(C(=O)Cc1cc(Cl)c(Cl)cc1NC(=O)CN)[C@H]1CCCC[C@@H]1N1CCCC1 | TGI | > 100 µM |
| Oc1[nH]c2ccccc2c1N=Nc1c(F)c(F)c(F)c(F)c1F | TGI | > 55.7 µM |
| COc1ccc(N2C(=O)C3c4[nH]c5ccc(F)cc5c4C4CCC(C(C)(C)C)CC4C3C2=O)cc1 (stereo unspecified) | TGI | > 10 µM |
| CCN(CC)c1ccc2cc(C(=O)Nc3ccc(C)cc3)c(=N)oc2c1 | TGI | > 100 µM |
| Cc1cccc(C)c1Nc1nc(C)c(C(=O)CC(=O)C(=O)Nc2c(C(C)C)cccc2C(C)C)s1 | TGI | > 100 µM |
| COc1ccc(-n2c(=O)n(-c3ccccc3)c(=O)n2-c2ccc(OC)cc2)cc1 | TGI | > 100 µM |
| Cc1cc(Cl)ccc1Nc1nc(C(F)(F)F)ccc1C(=O)N/N=C/c1ccccc1Cl | TGI | > 54.3 µM |
| CC(=O)N(O)Cc1ccccc1 | TGI | > 100 µM |
| COc1cc2c(=O)n(CCN(C)C)c3c4cc5c(cc4ccc3c2cc1OC)OCO5 | TGI | > 50 µM |
| COc1ccc2c(c1)c(=O)c1c(NCCN(C)C)ccc3nnn2c31 | TGI | 19.7 µM |
| CC(C)(C)C1=CC(=C2C=Cc3ccccc3O2)C=C(C(C)(C)C)C1=O | TGI | 15.3 µM |
| NC(=Nc1ccc(N)cc1)C(N)=Nc1ccc(N)cc1 | TGI | > 100 µM |
| O=[N+]([O-])/C(C(Cl)=C(Cl)Cl)=C(\N1CCCCC1)n1nnc2ccccc21 | TGI | 33.7 µM |
| CC(CN(C)C)C(=O)c1ccccc1 (stereo unspecified) | TGI | 33.8 µM |
| C=CCc1cc(C(Cc2ccccc2)NC(C)C)cc(OCc2ccccc2)c1OCc1ccccc1 (stereo unspecified) | TGI | 29.4 µM |
| CCOC(=O)CCC(NC(=O)OCc1ccccc1)C(=O)NC(CCC(=O)OCC)C(=O)NN (stereo unspecified) (Cbz-Glu(OEt)-Glu(OEt)-NHNH2; configuration not given here) | TGI | > 100 µM |
| O=C(Nc1cc(Oc2cc(F)c(NC(=O)C3(C(=O)Nc4ccc(F)cc4)CC3)cc2F)ccn1)C1CC1 | TGI | > 100 µM |
| C#CCN(C(=O)C(F)(F)F)c1ccc(C(=O)c2ccc(N(CC#C)C(=O)C(F)(F)F)cc2)cc1 | TGI | > 100 µM |
| NNC(=O)c1ccc(OCc2nc3ccccc3[nH]2)cc1 | TGI | > 100 µM |

Just for reference, PubChem BioAssay (NCI) is where these values come from.
